- System: Trichosporon dermatis
- test.protocol: Antimicrobial activity against Trichosporon dermatis by broth microdilution method
- Type: functional
- condition.label: Cutaneotrichosporon dermatis
quantity.measured: MIC50 (µg/mL)
One number for each entry, in µg/mL.

Worked examples, 2 compounds total:
compound: C[C@@H]1[C@H](O)[C@@H](C)/C=C/C=C/C=C/C=C/C=C/C=C/C=C/[C@H](O[C@@H]2O[C@H](C)[C@@H](O)[C@H](N)[C@@H]2O)C[C@@H]2O[C@](O)(C[C@@H](O)C[C@@H](O)[C@H](O)CC[C@@H](O)C[C@@H](O)CC(=O)O[C@H]1C)C[C@H](O)[C@H]2C(=O)O
study.system: Trichosporon dermatis
result.unit: µg/mL
MIC50: 0.5
--
compound: CC[C@@H]([C@H](C)O)n1ncn(-c2ccc(N3CCN(c4ccc(OC[C@@H]5CO[C@@](Cn6cncn6)(c6ccc(F)cc6F)C5)cc4)CC3)cc2)c1=O
study.system: Trichosporon dermatis
result.unit: µg/mL
MIC50: 0.25

Now examine the next entry.
Given the entry CCC(C)n1ncn(-c2ccc(N3CCN(c4ccc(OCC5COC(Cn6cncn6)(c6ccc(Cl)cc6Cl)O5)cc4)CC3)cc2)c1=O (centres undefined) , report its measured MIC50.
0.5

* * *

- System: Paecilomyces variotii
- test.protocol: Antimicrobial activity against Paecilomyces variotii by broth microdilution method
- Type: functional
*1 amine or outer side, *2 acyl side, *3 side chain or, on linkers, in order; H or OH if unused. Where a SMILES comes first, the peptide text is derived from it. Bridges are numbered along the chain shown (N, C = ends). [ ]: non-standard residue; d: D form. The star is where a group is joined. hTyr(3S-OH,4S-OH,3'-OSO3H) = N[C@H](C(=O)O)[C@H](O)[C@@H](O)c1ccc(O)c(OS(=O)(=O)O)c1; Orn(4R-OH,5R-OH) = O=C([C@H](C[C@@H](O)[C@@H](O)N[*:3])N[*:1])[*:2]; Pro(3S-OH,4S-Me) = C[C@H]1CN[C@H](C(=O)O)[C@H]1O; X1 = CCCCCOc1ccc(-c2cc(-c3ccc(C(=O)*)cc3)no2)cc1; Gln(3R-OH) = NC(=O)C[C@@H](O)[C@H](N)C(=O)O; Hyp = O=C(O)[C@@H]1C[C@@H](O)CN1
quantity.measured: MIC50 (µg/mL)
Numbers only, in µg/mL.

Worked cases, MIC50 given:
compound: CC[C@H](C)C[C@H](C)CCCCCCCCC(=O)N[C@H]1C[C@@H](O)[C@@H](NCCN)NC(=O)[C@@H]2[C@@H](O)CCN2C(=O)[C@H]([C@H](O)CCN)NC(=O)[C@H]([C@H](O)[C@@H](O)c2ccc(O)cc2)NC(=O)[C@@H]2C[C@@H](O)CN2C(=O)[C@H]([C@@H](C)O)NC1=O
quantity.measured: MIC50
recorded.result: 0.5
--
compound: C[C@@H](c1ncncc1F)[C@](O)(Cn1cncn1)c1ccc(F)cc1F
quantity.measured: MIC50
recorded.result: 1
--
compound: CCCCCOc1ccc(-c2cc(-c3ccc(C(=O)N[C@H]4C[C@@H](O)[C@@H](O)NC(=O)[C@@H]5[C@@H](O)[C@@H](C)CN5C(=O)[C@H]([C@H](O)CC(N)=O)NC(=O)[C@H]([C@H](O)[C@@H](O)c5ccc(O)c(OS(=O)(=O)O)c5)NC(=O)[C@@H]5C[C@@H](O)CN5C(=O)[C@H]([C@@H](C)O)NC4=O)cc3)no2)cc1 [MICAFUNGIN] (X1-[Orn(4R-OH,5R-OH)]T[Hyp][hTyr(3S-OH,4S-OH,3'-OSO3H)][Gln(3R-OH)][Pro(3S-OH,4S-Me)]; lactam 1-C)
quantity.measured: MIC50
recorded.result: 0.03

Now let's try a different one.
What value of MIC50 has been recorded for this entry: CCC(C)n1ncn(-c2ccc(N3CCN(c4ccc(OCC5COC(Cn6cncn6)(c6ccc(Cl)cc6Cl)O5)cc4)CC3)cc2)c1=O (centres undefined)
0.06
